Hey, just so you know, these numbers are from ChEMBL document CHEMBL4402570.

Tested on: Human immunodeficiency virus 1
Assay Comment: Antiviral activity against HIV1 NL4-3 infected in human MT2 cells measured after 3 to 4 days by luciferase reporter gene assay
Assay type: functional, organism-based
Test Conditions: Human immunodeficiency virus 1, NL4-3, MT2
pEC50: −log10 of the molar value.
Record t whenever pEC50 is at 8 or higher; record f when lower.

compound="Cc1nc2cc(-c3cccc(OCc4ccccc4)c3)nn2c(N2CCC(C)(C)CC2)c1C(OC(C)(C)C)C(=O)O (stereo unspecified)" qualitative_label=f
compound="Cc1ccc(-c2c(C(OC(C)(C)C)C(=O)O)c(C)nc3ccnn23)cc1 (stereo unspecified)" qualitative_label=f

Task: API: above_or_equal(metric=pEC50, cutoff=8) for item Cc1nc2cc(-c3ccc(OCc4ccccc4)cc3)nn2c(-c2cc(F)c3c(c2C)CCCO3)c1C(OC(C)(C)C)C(=O)O (stereo unspecified)
Output: f

Task: API: above_or_equal(metric=pEC50, cutoff=8) for item Cc1nc2cc(-c3cccc(-c4ccccc4F)c3)nn2c(-c2cc(F)c3c(c2C)CCCO3)c1[C@H](OC(C)(C)C)C(=O)O
Output: t

Task: API: above_or_equal(metric=pEC50, cutoff=8) for item COc1ccc(-c2cccc(-c3cc4nc(C)c([C@H](OC(C)(C)C)C(=O)O)c(-c5cc(F)c6c(c5C)CCCO6)n4n3)c2)cn1
Output: t

Task: API: above_or_equal(metric=pEC50, cutoff=8) for item Cc1nc2ccccc2c(-c2ccc3c4c(ccnc24)CCO3)c1[C@H](OC(C)(C)C)C(=O)O
Output: f

Task: API: above_or_equal(metric=pEC50, cutoff=8) for item Cc1ccc(-c2cc3nc(C)c(C(OC(C)(C)C)C(=O)O)c(-c4cc(F)c5c(c4C)CCCO5)n3n2)cc1 (stereo unspecified)
Output: f

Task: API: above_or_equal(metric=pEC50, cutoff=8) for item Cc1ccc(-c2c(C(OC(C)(C)C)C(N)=O)c(C)nc3cc(-c4ccccc4)nn23)cc1 (stereo unspecified)
Output: f
